Molecular target: Histone acetyltransferase KAT2B (Homo sapiens, UniProt Q92831)
Sequence (Q92831 whole entry, the tested form may be a part): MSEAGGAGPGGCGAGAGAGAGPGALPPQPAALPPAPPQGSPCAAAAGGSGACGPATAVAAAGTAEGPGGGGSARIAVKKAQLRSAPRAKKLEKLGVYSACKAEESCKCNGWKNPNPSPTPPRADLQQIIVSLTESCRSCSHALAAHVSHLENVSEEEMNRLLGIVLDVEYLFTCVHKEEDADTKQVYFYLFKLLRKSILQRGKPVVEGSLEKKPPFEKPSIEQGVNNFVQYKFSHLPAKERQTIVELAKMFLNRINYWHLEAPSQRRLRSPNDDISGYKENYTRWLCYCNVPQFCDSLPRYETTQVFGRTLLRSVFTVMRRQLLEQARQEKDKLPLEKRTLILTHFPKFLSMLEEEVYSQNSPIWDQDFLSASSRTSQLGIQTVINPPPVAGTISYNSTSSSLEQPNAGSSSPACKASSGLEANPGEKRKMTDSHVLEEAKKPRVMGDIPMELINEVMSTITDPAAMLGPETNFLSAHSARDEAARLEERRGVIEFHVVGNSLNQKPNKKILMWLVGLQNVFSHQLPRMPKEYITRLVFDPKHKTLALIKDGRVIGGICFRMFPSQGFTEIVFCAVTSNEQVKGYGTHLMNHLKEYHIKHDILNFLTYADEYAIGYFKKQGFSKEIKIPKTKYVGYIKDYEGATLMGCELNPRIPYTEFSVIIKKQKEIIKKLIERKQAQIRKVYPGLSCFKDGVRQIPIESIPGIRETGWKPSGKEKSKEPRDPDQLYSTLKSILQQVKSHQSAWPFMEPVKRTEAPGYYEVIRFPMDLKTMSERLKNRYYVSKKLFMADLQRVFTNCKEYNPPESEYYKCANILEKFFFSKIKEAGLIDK
Assay: Binding affinity to human PCAF (G715 to D831 residues) expressed in mammalian expression system by BROMOscan assay
MEASURED_METRIC: Kd

# query: Kd of entry "CCS(=O)(=O)Nc1ccc(Oc2ccc(F)cc2F)c(-c2cn(C)c(=O)c3[nH]ccc23)c1"
> 1 µM

---

Test: Half life in mouse at 10 mg/kg, po
Format: ADME, organism-based
Conditions: in vivo
MEASURED_METRIC: half-life (h)
Numeric answer only, unit h assumed.

# query: half-life of entry CCS(=O)(=O)Nc1ccc(Oc2ccc(F)cc2F)c(-c2cn(C)c(=O)c3[nH]ccc23)c1 [MIVEBRESIB]
2.7

---

Experiment: Permeability in MDCK cells
Format: ADME, cell-based, Canis lupus familiaris
Settings: dog, read-out: permeability
Classification field. Basis: Papp. Definitions: Low: < 10 ×10⁻⁶ cm/s; Medium: ≥ 10 ×10⁻⁶ cm/s and < 20 ×10⁻⁶ cm/s; High: ≥ 20 ×10⁻⁶ cm/s

Hi, small favor: classify "CCS(=O)(=O)Nc1ccc(OC2CCN(C)CC2)c(-c2cn(C)c(=O)c3[nH]ccc23)c1" by its Papp when you get a moment.
Low

Hi, small favor: classify "Cn1cc(-c2cc(NS(C)(=O)=O)ccc2OC2CCOCC2)c2cc[nH]c2c1=O" by its Papp when you get a moment.
Low

Hi, small favor: classify "Cn1cc(-c2cc(NS(=O)(=O)CC(F)(F)F)ccc2Oc2ccccc2)c2cc[nH]c2c1=O" by its Papp when you get a moment.
Medium

Hi, small favor: classify "Cn1cc(-c2cc(NS(C)(=O)=O)ccc2Oc2ccccc2)c2cc[nH]c2c1=O" by its Papp when you get a moment.
Medium

Hi, small favor: classify "CCS(=O)(=O)Nc1ccc(Oc2c(F)cc(F)cc2F)c(-c2cn(C)c(=O)c3[nH]ccc23)c1" by its Papp when you get a moment.
High

Hi, small favor: classify "Cn1cc(-c2cc(NS(C)(=O)=O)ccc2OCc2ccccc2)c2cc[nH]c2c1=O" by its Papp when you get a moment.
High

Hi, small favor: classify "Cn1cc(-c2cc(NS(C)(=O)=O)ccc2OC2CCCCC2)c2cc[nH]c2c1=O" by its Papp when you get a moment.
High

Hi, small favor: classify "Cn1cc(-c2cc(NS(C)(=O)=O)ccc2Oc2ccccc2C(F)(F)F)c2cc[nH]c2c1=O" by its Papp when you get a moment.
Low

Hi, small favor: classify "Cn1cc(-c2cc(NS(C)(=O)=O)ccc2Oc2ccc(F)cc2F)c2cc[nH]c2c1=O" by its Papp when you get a moment.
Medium

Hi, small favor: classify CCS(=O)(=O)Nc1ccc(Oc2ccc(F)cc2F)c(-c2cn(C)c(=O)c3[nH]ccc23)c1 [MIVEBRESIB] by its Papp when you get a moment.
High

---

Molecular target: Bromodomain-containing protein 3 (Homo sapiens, UniProt Q15059)
Sequence (Q15059 whole entry, the tested form may be a part): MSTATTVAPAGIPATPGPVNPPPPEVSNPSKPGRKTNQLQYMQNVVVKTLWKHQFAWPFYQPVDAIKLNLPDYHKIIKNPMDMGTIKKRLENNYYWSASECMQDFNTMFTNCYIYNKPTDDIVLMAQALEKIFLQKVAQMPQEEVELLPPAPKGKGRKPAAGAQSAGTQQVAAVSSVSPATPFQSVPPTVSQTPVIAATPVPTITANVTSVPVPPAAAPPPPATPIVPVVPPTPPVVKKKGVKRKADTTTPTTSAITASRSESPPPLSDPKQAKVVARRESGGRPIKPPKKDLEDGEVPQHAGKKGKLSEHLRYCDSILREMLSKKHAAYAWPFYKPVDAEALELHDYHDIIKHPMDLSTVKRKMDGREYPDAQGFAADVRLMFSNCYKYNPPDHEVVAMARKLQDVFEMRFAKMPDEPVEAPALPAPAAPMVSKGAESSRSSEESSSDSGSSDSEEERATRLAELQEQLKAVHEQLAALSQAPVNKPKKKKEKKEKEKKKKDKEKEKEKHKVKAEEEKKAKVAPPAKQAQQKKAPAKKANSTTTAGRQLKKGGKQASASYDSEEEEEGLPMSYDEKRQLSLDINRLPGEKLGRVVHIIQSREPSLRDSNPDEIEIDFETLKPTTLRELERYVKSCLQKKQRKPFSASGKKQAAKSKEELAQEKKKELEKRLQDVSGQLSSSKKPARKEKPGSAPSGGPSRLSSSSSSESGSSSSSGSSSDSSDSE
Assay: Binding affinity to BRD3 BD1 to BD2 (P24 to A416 residues) (unknown origin)
MEASURED_METRIC: Ki
Include the unit right after the number.

# query: Ki of entry "CCS(=O)(=O)Nc1ccc(Oc2ccc(F)cc2F)c(-c2cn(C)c(=O)c3[nH]ccc23)c1"
12.2 nM

---

Test: Intrinsic clearance in rat hepatocytes
Assay type: ADME, cell-based, Hepatocyte
Settings: read-out: CLH (converted)
MEASURED_METRIC: CLint scaled
Include the unit right after the number.

# query: CLint scaled of entry "CCS(=O)(=O)Nc1ccc(Oc2ccc(F)cc2F)c(-c2cn(C)c(=O)c3[nH]ccc23)c1"
66.7 mL/min/kg
